Recorded values, source PubChem BioAssay.

# procedure.text: small-molecule microarray binders of probe aCHRDL2, primary screen, biochemical, biotinylated probe, 635/667 nm fluorescence (AID 1100)
# applied.conditions: higher = more signal
measured.metric: composite z-score

structure.as.smiles | experimental.result
O=C1c2ccccc2[C@](Cc2ccccc2I)(C(=O)O)[C@H](c2ccc(CO)cc2)N1Cc1ccccc1Cl | 1.06
CCOC(=O)C[C@H]1[C@H](OC(=O)Cc2ccc3c(c2)OCO3)[C@@H](NC(=O)c2ccc3ccccc3c2)c2cc(OCCCO)ccc2N1C(=O)c1ccc2ccccc2n1 | -0.0322
[N-]=[N+]=NCc1ccccc1C[C@@]1(C(=O)NCc2ccccc2)N=C(c2ccc(OCCCO)cc2)O[C@@H]1c1ccccc1 | 1.12
CC(C)C(=C=CC[C@@H](O)c1ccc(CO)o1)CCO | -0.479
CCOC(=O)C[C@H]1[C@H](OC(=O)c2ccc(-c3ccccc3)cc2)[C@@H](NC(=O)c2ccccc2)c2cc(OCCCO)ccc2N1C(=O)c1ccccc1 | 0.47
CC(C)(C)OC(=O)CC[C@@]1(C(=O)NCc2ccccc2)N=C(c2ccc(OCCCO)cc2)O[C@@H]1c1ccccc1CN=[N+]=[N-] | 0.997
C/C=C/[C@@H](CCn1cc(CCO[Si](C(C)C)(C(C)C)C(C)C)nn1)[Si](C)(C)c1ccc(OC)cc1 | -0.34

---

Below, each entry is listed with its recorded z-score.
# study.target: NADPH oxidase 5 (Homo sapiens)
# procedure.text: NOX5-dependent H2O2 signal modulators, primary screen, NOX inhibitor project, cell-based, HEK293-NOX5, Amplex Red fluorescence (AID 1161)
# applied.conditions: HEK293-NOX5, ionomycin, 45 min, higher = more signal

structure.as.smiles | z-score
C=C(COC)C(=O)CC[C@@H](OC(=O)c1ccccc1-c1ccccc1C(=O)O)c1cccc(OCCO)c1 | -0.986
O=C(NO)[C@]1(Cc2ccccc2)N=C(c2ccc(OCCCO)cc2)O[C@@H]1c1ccccc1 | 2.06
C=C(/C(=C/C[C@H](OC(C)=O)c1cccc(OCCO)c1)c1cc(C(=O)OC)ccc1OC)C(C)C | -1.06
O=C(NCC(F)(F)F)[C@@H]1c2ccccc2C(=O)N(C2Cc3ccccc3C2)[C@H]1c1ccc(CO)cc1 | -1.23
COc1ccc([Si](C)(C)[C@H]2[C@H](CC(=O)N(CCO)Cc3ccccc3)O[C@@]3(C(=O)N(Cc4ccc(N5CCOC5=O)cc4)c4ccccc43)[C@@H]2C)cc1 | 1.34
Cc1ccc(S[C@]2(C(=O)NC3CC3)CC(=O)N(Cc3ccccc3C(F)(F)F)[C@@H]2c2ccc(CO)cc2I)cc1 | 1.21
O=C1O[C@H](c2ccccc2)[C@H](c2ccccc2)N2[C@H]1[C@@H](C(=O)NC[C@H](O)c1ccccc1)[C@]1(C(=O)Nc3ccc(C#CC4(O)CCCCCC4)cc31)[C@H]2c1ccc(O)cc1 | 1.58

---

Below, each entry is listed with its recorded z-score.
# procedure.text: osmotic lysis modulators in infected erythrocytes, primary screen, PSAC antagonist project, cell-based, P. falciparum Indochina, OD700, 3 h (AID 1156)
# applied.conditions: higher = more signal, called active from +8 up or from −8 down
The source made the active and inactive calls.

compound | z-score
CO[C@H]1O[C@H](CO)[C@@H](OC(=O)Nc2ccccc2)[C@H](OC(=O)Nc2ccccc2-c2ccccc2)[C@@H]1OC(=O)Nc1ccccc1-c1ccccc1 | -0.358 (inactive)
COc1ccc(C#Cc2ccc3c(c2)[C@]2(C(=O)N3)[C@H](c3ccc(O)cc3)N3[C@H](c4ccccc4)[C@H](c4ccccc4)OC(=O)[C@H]3[C@@H]2C(=O)N2CCN(c3ncccn3)CC2)cc1 | 1.19 (inactive)
COCCOC(=O)N1C(=O)[C@@]2(c3cc(C#CCNC(N)=O)ccc31)[C@H](c1ccccc1OCCO)N1[C@H](c3ccccc3)[C@H](c3ccccc3)OC(=O)[C@H]1[C@@H]2C(=O)Nc1nc2ccccc2s1 | 0.653 (inactive)
C=CCC(OC(C)=O)[C@@H]1[C@@H](N(Cc2ccc(-c3cccc(C(F)(F)F)c3)o2)C(=O)c2ccc(-c3ccccc3)cc2)c2cc(OCCCO)ccc2N1C(=O)Cc1ccc(OC)cc1 (stereo not given in full) | 0.218 (inactive)
C=CCN1C(=O)[C@@]2(O[C@@H](CCO)[C@H]([Si](C)(C)c3ccc(OC)cc3)[C@H]2C)c2cc(N(C=O)c3ccccc3)ccc21 | -0.599 (inactive)
